test: in vivo; details: male, CD-1, mouse

[
  {
    "compound": "CC12CC3CC(C(=O)N[C@H]4CC[C@H](N)CC4)(C1)CC(c1ccccc1)(C3)C2.Cl (stereo partly shown) [Example A78]",
    "scaleUnit": "min",
    "half-life": 426
  }
]

====

Reported CC50 values are given for each entry in this list.
assay: in vitro; conditions: African green monkey, CC50
experimentalReadout: CC50 (µM)

[
  {
    "compound": "O=C(CC12CC3CC(CC(C3)C1)C2)N1CCC2(CCN(Cc3ccccc3)C2)C1 (stereo not drawn) [Example A50]",
    "experimentalReadout": "CC50",
    "scaleUnit": "µM",
    "boundOperator": "=",
    "resultNumber": 54.9
  },
  {
    "compound": "O=C(N[C@@H]1CCN(Cc2ccccc2)C1)C12CC3CC(C1)CC(c1ccccc1)(C3)C2 [Example A19]",
    "experimentalReadout": "CC50",
    "scaleUnit": "µM",
    "boundOperator": "=",
    "resultNumber": 3.9
  },
  {
    "compound": "O=C(N1CC2(CN(Cc3ccccc3)C2)C1)C12CC3CC(C1)CC(c1ccccc1)(C3)C2 [Example A9]",
    "experimentalReadout": "CC50",
    "scaleUnit": "µM",
    "boundOperator": "=",
    "resultNumber": 10.8
  },
  {
    "compound": "CC12CC3CC(C(=O)N[C@H]4CC[C@H](CN)CC4)(C1)CC(c1ccccc1)(C3)C2 (stereo partly drawn) [Example A96]",
    "experimentalReadout": "CC50",
    "scaleUnit": "µM",
    "boundOperator": "=",
    "resultNumber": 11.6
  },
  {
    "compound": "CC1CCN(CC(O)COc2ccc(C34CC5CC(CC(C5)C3)C4)cc2)CC1 (stereo not drawn) [Example D21]",
    "experimentalReadout": "CC50",
    "scaleUnit": "µM",
    "boundOperator": "=",
    "resultNumber": 1.1
  },
  {
    "compound": "CC12CC3(C)CC(C(=O)NC4CCNCC4)(C1)CC(c1ccccc1)(C2)C3 [Example A73]",
    "experimentalReadout": "CC50",
    "scaleUnit": "µM",
    "boundOperator": "=",
    "resultNumber": 13
  },
  {
    "compound": "O=C(NC1CCNCC1)NC12CC3CC(C1)CC(c1ccccc1)(C3)C2 [Example E1]",
    "experimentalReadout": "CC50",
    "scaleUnit": "µM",
    "boundOperator": "=",
    "resultNumber": 18.3
  },
  {
    "compound": "O=C(N1CC2CCNC2C1)C12CC3CC(C1)CC(c1ccccc1)(C3)C2 (stereo not drawn) [Example A62]",
    "experimentalReadout": "CC50",
    "scaleUnit": "µM",
    "boundOperator": "=",
    "resultNumber": 30
  },
  {
    "compound": "CC12CC3CC(C(=O)N4CCCN(CCCN5CCCC5)CC4)(C1)CC(c1ccccc1)(C3)C2 (stereo not drawn) [Example A43]",
    "experimentalReadout": "CC50",
    "scaleUnit": "µM",
    "boundOperator": "=",
    "resultNumber": 1.2
  },
  {
    "compound": "N[C@H]1CC[C@H](NC(=O)C23CC4CC2CC(c2ccccc2)(C4)C3)CC1 (stereo partly drawn) [Example A87]",
    "experimentalReadout": "CC50",
    "scaleUnit": "µM",
    "boundOperator": "=",
    "resultNumber": 1.4
  },
  {
    "compound": "CCOCCN1CCN(CC23CC4CC(CC(C4)C2)C3)CC1 [Example D5]",
    "experimentalReadout": "CC50",
    "scaleUnit": "µM",
    "boundOperator": ">",
    "resultNumber": 10
  },
  {
    "compound": "CN(C)CCNC(=O)C12CC3CC(C)(C1)CC(c1ccccc1)(C3)C2 (stereo not drawn) [Example A46]",
    "experimentalReadout": "CC50",
    "scaleUnit": "µM",
    "boundOperator": "=",
    "resultNumber": 13.5
  },
  {
    "compound": "CC1CCN(C[C@H](O)COCC23CC4CC(C2)CC(c2ccccc2)(C4)C3)CC1 [Example C10]",
    "experimentalReadout": "CC50",
    "scaleUnit": "µM",
    "boundOperator": "=",
    "resultNumber": 3.6
  },
  {
    "compound": "O=C(NC12CC3CC(C1)CC(c1ccccc1)(C3)C2)C1CCNCC1 [Example E3]",
    "experimentalReadout": "CC50",
    "scaleUnit": "µM",
    "boundOperator": "=",
    "resultNumber": 36.3
  },
  {
    "compound": "NCCOc1ccc(C23CC4CC(CC(C4)C2)C3)cc1 [Example D34, 1-[4-(2-aminoethoxy)phenyl] adamantane]",
    "experimentalReadout": "CC50",
    "scaleUnit": "µM",
    "boundOperator": "=",
    "resultNumber": 3.7
  },
  {
    "compound": "N[C@H]1CC[C@H](NC(=O)C23CC4CC(C2)CC(C(F)(F)F)(C4)C3)CC1 [Example A94]",
    "experimentalReadout": "CC50",
    "scaleUnit": "µM",
    "boundOperator": "=",
    "resultNumber": 5.1
  },
  {
    "compound": "N[C@H]1CC[C@H](NC(=O)C2C3CC4CC2CC(c2ccccc2)(C4)C3)CC1 (stereo partly drawn) [Example A84]",
    "experimentalReadout": "CC50",
    "scaleUnit": "µM",
    "boundOperator": "=",
    "resultNumber": 9
  },
  {
    "compound": "CC12CC3CC(C(=O)NC4C[C@H]5CC[C@H](C4)N5)(C1)CC(c1ccccc1)(C3)C2 (stereo partly drawn) [Example A92]",
    "experimentalReadout": "CC50",
    "scaleUnit": "µM",
    "boundOperator": "=",
    "resultNumber": 10.8
  },
  {
    "compound": "CN1CCN(CC23CC4CC(C2)CC(c2ccccc2)(C4)C3)CC1 [Example C1]",
    "experimentalReadout": "CC50",
    "scaleUnit": "µM",
    "boundOperator": "=",
    "resultNumber": 5.8
  },
  {
    "compound": "CC12CC3CC(C(=O)NC4CC5(CC(N)C5)C4)(C1)CC(c1ccccc1)(C3)C2 (stereo not drawn) [Example A90]",
    "experimentalReadout": "CC50",
    "scaleUnit": "µM",
    "boundOperator": "=",
    "resultNumber": 59
  },
  {
    "compound": "O=C(CNC(=O)C12CC3CC(C1)CC(c1ccccc1)(C3)C2)N[C@@H]1CCN(Cc2ccccc2)C1 [Example A7]",
    "experimentalReadout": "CC50",
    "scaleUnit": "µM",
    "boundOperator": ">",
    "resultNumber": 10
  },
  {
    "compound": "CC12CC3CC(C(=O)N4C5CCC4CC(N)C5)(C1)CC(c1ccccc1)(C3)C2 (stereo not drawn) [Example A93]",
    "experimentalReadout": "CC50",
    "scaleUnit": "µM",
    "boundOperator": "=",
    "resultNumber": 12.2
  },
  {
    "compound": "c1ccc(C23CC4CC(CC(CNc5ccc(CN6CCCCC6)cn5)(C4)C2)C3)cc1 [Example C15]",
    "experimentalReadout": "CC50",
    "scaleUnit": "µM",
    "boundOperator": "=",
    "resultNumber": 3.9
  },
  {
    "compound": "CN1CCC[C@@H](NC(=O)C23CC4CC(C2)CC(c2ccccc2)(C4)C3)C1 [Example A38]",
    "experimentalReadout": "CC50",
    "scaleUnit": "µM",
    "boundOperator": ">",
    "resultNumber": 10
  },
  {
    "compound": "CN1CCN(CC(O)CCOc2ccc(C34CC5CC(CC(C5)C3)C4)cc2)CC1 (stereo not drawn) [Example C9]",
    "experimentalReadout": "CC50",
    "scaleUnit": "µM",
    "boundOperator": "=",
    "resultNumber": 8.3
  },
  {
    "compound": "CN(C(=O)C12CC3CC(C)(C1)CC(c1ccccc1)(C3)C2)C1CCNCC1 (stereo not drawn) [Example A104]",
    "experimentalReadout": "CC50",
    "scaleUnit": "µM",
    "boundOperator": "=",
    "resultNumber": 66
  },
  {
    "compound": "O=C(NCCC12CC3CC(CC(C3)C1)C2)c1ccc(CN2CCOCC2)cc1 [Example D41]",
    "experimentalReadout": "CC50",
    "scaleUnit": "µM",
    "boundOperator": ">",
    "resultNumber": 3
  },
  {
    "compound": "C[C@H]1CNCCN1C(=O)C12CC3CC(C)(C1)CC(c1ccccc1)(C3)C2 (stereo partly drawn) [Example A83]",
    "experimentalReadout": "CC50",
    "scaleUnit": "µM",
    "boundOperator": "=",
    "resultNumber": 12.9
  },
  {
    "compound": "COC(=O)c1ccc(COc2ccccc2CN2CCN(C(=O)CNC(=O)C34CC5CC(CC3C5)C4)CC2)cc1 [Example A5]",
    "experimentalReadout": "CC50",
    "scaleUnit": "µM",
    "boundOperator": ">",
    "resultNumber": 3
  },
  {
    "compound": "CC12CC3CC(C(=O)NCCN4CCOCC4)(C1)CC(c1ccccc1)(C3)C2 (stereo not drawn) [Example A48]",
    "experimentalReadout": "CC50",
    "scaleUnit": "µM",
    "boundOperator": "=",
    "resultNumber": 54.9
  },
  {
    "compound": "CC12CC3CC(C(=O)N4CCNCC4)(C1)CC(c1ccccc1)(C3)C2 (stereo not drawn) [Example A71]",
    "experimentalReadout": "CC50",
    "scaleUnit": "µM",
    "boundOperator": "=",
    "resultNumber": 4.6
  },
  {
    "compound": "CC12CC3CC(C(=O)NCc4ncc[nH]4)(C1)CC(c1ccccc1)(C3)C2 (stereo not drawn) [Example A202]",
    "experimentalReadout": "CC50",
    "scaleUnit": "µM",
    "boundOperator": "=",
    "resultNumber": 41.5
  },
  {
    "compound": "CN1CCN(CC(O)COc2ccc(C34CC5CC(CC(C5)C3)C4)cc2)CC1 (stereo not drawn) [Example D28]",
    "experimentalReadout": "CC50",
    "scaleUnit": "µM",
    "boundOperator": "=",
    "resultNumber": 4.2
  }
]
